Recorded values, source the supplement of paper PMC9732359.

Give protein stability index for every item shown.
assay: protein stability index of a GFP-peptide fusion (yeast GPS) (PSI 1-4); higher = more stable; sorted into four equal gates, so the index is relative within each strain; conditions: pdr5∆
Number only, no unit.

Exercise: Tell us which protein stability index value is on record for SDIPKTTVQVAEEAIVN [PRE4]
Solution: 2.72

Exercise: Tell us which protein stability index value is on record for KRDAKAAGSYYVEAQHK [RPL7A]
Solution: 3.19

Exercise: Tell us which protein stability index value is on record for NTIRQNVTSSGDHNKLR [YML103C/NUP188]
Solution: 3.04

Exercise: Tell us which protein stability index value is on record for GTLDINPDDDYGFKQEI [FAS1]
Solution: 3.21

Exercise: Tell us which protein stability index value is on record for KIALGSPIVNVLEDVYR [RRI2]
Solution: 2.96

Exercise: Tell us which protein stability index value is on record for DIDDELNELETLIKKKQ [SMC2]
Solution: 3.11

Exercise: Tell us which protein stability index value is on record for FNYVAVGDVSNLPYLDE [QCR2]
Solution: 3.14

Exercise: Tell us which protein stability index value is on record for KKLLINKDASLALQRGA [DPB4]
Solution: 2.75

Exercise: Tell us which protein stability index value is on record for MAKQLIRLANESSELNK [CSN12]
Solution: 2.62

Exercise: Tell us which protein stability index value is on record for RIKLATTSERVSNENKK [RRI1]
Solution: 3.08

Exercise: Tell us which protein stability index value is on record for FEYSKYRPLTPSSEVYS [RRP6]
Solution: 3.01

Exercise: Tell us which protein stability index value is on record for TRKSLNNAVRFSKQCLI [ECM29]
Solution: 2.96

Exercise: Tell us which protein stability index value is on record for IDLLTFQYGSRLPTFLK [RPP1]
Solution: 1.84

Exercise: Tell us which protein stability index value is on record for NENENFGYDIPLLDIVL [YML103C/NUP188]
Solution: 2.81

====

test: protein stability index of a GFP-peptide fusion (yeast GPS) (PSI 1-4); higher = more stable; sorted into four equal gates, so the index is relative within each strain; conditions: ubr1∆
Give protein stability index for every item shown.
Number only, no unit.

Exercise: Tell us which protein stability index value is on record for PQDYVLERVKRIMEKSV [YML031W/NDC1]
Solution: 2.12

Exercise: Tell us which protein stability index value is on record for IDVDMDASPAPSNESCS [SRB5]
Solution: 2.32

Exercise: Tell us which protein stability index value is on record for IAARRTGLLRGSQKTQD [RPL2A]
Solution: 2.68

Exercise: Tell us which protein stability index value is on record for EFLKWTPNVNVLVLHGD [ISW2]
Solution: 1.84

Exercise: Tell us which protein stability index value is on record for FSSNERYFFWLQEKNSG [RPN13]
Solution: 2.25

Exercise: Tell us which protein stability index value is on record for IDLLWKGKTPKNAAESS [PRP28]
Solution: 3.14

Exercise: Tell us which protein stability index value is on record for QTYINQELGFCELLKLT [SSN2]
Solution: 2.67

Exercise: Tell us which protein stability index value is on record for HLHDAVFVNTGLQNVRK [SWP82]
Solution: 2.73

Exercise: Tell us which protein stability index value is on record for KPYKQVKQIAPAELEGL [FAS2]
Solution: 1.9

Exercise: Tell us which protein stability index value is on record for LRRVEERFTKSKTLSLI [FAS1]
Solution: 1.79

Exercise: Tell us which protein stability index value is on record for IMKFQSLSDNDLAVCAT [ECM29]
Solution: 2.77

Exercise: Tell us which protein stability index value is on record for DDPTQLVSRGGCGNTQP [RPO21]
Solution: 3.04

Exercise: Tell us which protein stability index value is on record for MEWPKDMLKYKEDEPVV [ITC1]
Solution: 3.67

Exercise: Tell us which protein stability index value is on record for KSNRSYSIALSNVAAIF [GAL11]
Solution: 1.43

Exercise: Tell us which protein stability index value is on record for TKKLIQKTVFDELCKLV [SRP54]
Solution: 1.11

====

test: protein stability index of a GFP-peptide fusion (yeast GPS) (PSI 1-4); higher = more stable; sorted into four equal gates, so the index is relative within each strain; settings: ubr1∆
EXPERIMENTAL_READOUT: protein stability index

Exercise: Tell us which protein stability index value is on record for DHFIHLRNLHMKRMVAQ [SNF12]
Solution: 2.45

Exercise: Tell us which protein stability index value is on record for KSIENPTQTKGNDAKPA [YLR335W/NUP2]
Solution: 2.94

Exercise: Tell us which protein stability index value is on record for REQYETQVALNESEKDQ [UBP6]
Solution: 2.91

Exercise: Tell us which protein stability index value is on record for ADLMALENATWTMRIEG [SNF12]
Solution: 3.07

Exercise: Tell us which protein stability index value is on record for PLGILHIPICVTFSFFN [RRP45]
Solution: 1.12

Exercise: Tell us which protein stability index value is on record for APGASVPATAAPGTEAG [SWI1]
Solution: 3.18

Exercise: Tell us which protein stability index value is on record for ANRSRFNNEAPPQTRKF [SMB1]
Solution: 3.26

Exercise: Tell us which protein stability index value is on record for SKVSKQQAKGAFQKVAA [RPL24B]
Solution: 2.65

Exercise: Tell us which protein stability index value is on record for ANRDDVKGRENELLLPS [RPC82]
Solution: 3.34

Exercise: Tell us which protein stability index value is on record for IFLHSLPVKEFQIIDTL [RPS2]
Solution: 2.49

Exercise: Tell us which protein stability index value is on record for RRLPMTMFTAEQSELLK [SNF2]
Solution: 2.91

Exercise: Tell us which protein stability index value is on record for KKCIDFFEMLISKSLTF [RRI2]
Solution: 2.27

Exercise: Tell us which protein stability index value is on record for GAELRSVCTEAGMFAIR [RPT1]
Solution: 3.03

Exercise: Tell us which protein stability index value is on record for LNEMLNTRKNMSISLES [DIS3]
Solution: 2.95

Exercise: Tell us which protein stability index value is on record for RRLPEDESYARAYRIIR [QCR7]
Solution: 2.42

Exercise: Tell us which protein stability index value is on record for KTGTKPAAVFTETLKHD [RPL4A]
Solution: 2.54

Exercise: Tell us which protein stability index value is on record for NGVNVQIDQLNRLLPNL [GRR1]
Solution: 2.91

Exercise: Tell us which protein stability index value is on record for SEHVFDYFFYFLVLYDV [NUT1]
Solution: 2.36

Exercise: Tell us which protein stability index value is on record for VGGKSTVQNEILGDLGK [FAS2]
Solution: 3.25

Exercise: Tell us which protein stability index value is on record for DFILSLLHHVSELDSND [YJL039C/NUP192]
Solution: 2.4

Exercise: Tell us which protein stability index value is on record for EEKPGLIITRKAFKNNS [SMC4]
Solution: 2.94

Exercise: Tell us which protein stability index value is on record for VKSLVDNMITGVTKGYK [RPL9A]
Solution: 3.11

Exercise: Tell us which protein stability index value is on record for QSSFAGTWSAKEAVFKS [FAS2]
Solution: 2.99

Exercise: Tell us which protein stability index value is on record for LTSDLVYFGDENKVMLP [RRI2]
Solution: 3.03

Exercise: Tell us which protein stability index value is on record for TYQTERFTKFSDTLKEF [YDL116W/NUP84]
Solution: 1.97

Exercise: Tell us which protein stability index value is on record for FYRGNYTDFENTFQKTV [FAS1]
Solution: 2.67

Exercise: Tell us which protein stability index value is on record for SILRKSSPEEPFMSYSP [SNF12]
Solution: 2.79

Exercise: Tell us which protein stability index value is on record for ENAYKSENAPSASSKEF [YAR002W/NUP60]
Solution: 2.15

Exercise: Tell us which protein stability index value is on record for LIESGIGTHHAGLTRSD [BRR2]
Solution: 3.43

Exercise: Tell us which protein stability index value is on record for KDSYVRIANIEQNHLDN [YDL088C/ASM4]
Solution: 3.18

Exercise: Tell us which protein stability index value is on record for QKRNAHGYFLQDKEKID [ITC1]
Solution: 3.42

Exercise: Tell us which protein stability index value is on record for QPIVTGTSVISMKYDNG [PRE4]
Solution: 2

Exercise: Tell us which protein stability index value is on record for INLAMNESSLALEFVSL [SRB4]
Solution: 1.92

Exercise: Tell us which protein stability index value is on record for EDEDEDLFGDSNKSNST [SSN2]
Solution: 2.18

Exercise: Tell us which protein stability index value is on record for IRDLEKLYDKTENDIKA [RPT4]
Solution: 2.43

Exercise: Tell us which protein stability index value is on record for NIATQQNMQQSLQQMQH [GAL11]
Solution: 2.86

Exercise: Tell us which protein stability index value is on record for LRNKLIESNKLAGVLYE [RRP6]
Solution: 2.73

Exercise: Tell us which protein stability index value is on record for PTTTTGGLFGNSAQNNS [YGR119C/NUP57]
Solution: 3.24

Exercise: Tell us which protein stability index value is on record for EESINEFKSIEIEMKNK [SMC4]
Solution: 2.86

Exercise: Tell us which protein stability index value is on record for LAELINMTTIADRNDDD [SRB6]
Solution: 2.78

Exercise: Tell us which protein stability index value is on record for TSGTSSEQFNVWDWNNW [GAL11]
Solution: 2.73

Exercise: Tell us which protein stability index value is on record for IYRVRVRRGNRKRPVPK [RPL15A]
Solution: 3.2

Exercise: Tell us which protein stability index value is on record for EKTMMTFGKPEEEDSIL [YCS4]
Solution: 3.27

Exercise: Tell us which protein stability index value is on record for SLYTNTSRKALEEVSLK [RPL3]
Solution: 1.83

Exercise: Tell us which protein stability index value is on record for EIDDFNDIDDLDMELAE [SEC65]
Solution: 3.22

Exercise: Tell us which protein stability index value is on record for GEIEIKPNEEEELGFWD [RPN13]
Solution: 3.24

Exercise: Tell us which protein stability index value is on record for TNKLLFKRVSQTFEAKL [NUT1]
Solution: 1.83

Exercise: Tell us which protein stability index value is on record for TGKERSKKRKLNSLTNL [SNM1]
Solution: 2.67

Exercise: Tell us which protein stability index value is on record for ENLVVADLESFANNHFL [COR1]
Solution: 1.89

Exercise: Tell us which protein stability index value is on record for VEIEKRILKLGTQLATL [YGR119C/NUP57]
Solution: 1.4

Exercise: Tell us which protein stability index value is on record for HNGAPHHAIEEAESLLQ [RPO21]
Solution: 3

Exercise: Tell us which protein stability index value is on record for FGKTVKDGPFYTGSMSL [RPC31]
Solution: 2.98

Exercise: Tell us which protein stability index value is on record for FGQRAVLKFAAHTGATP [RPS0A]
Solution: 2.61

Exercise: Tell us which protein stability index value is on record for KFGACVAQGIMNAGGRN [RPN2]
Solution: 2.52

Exercise: Tell us which protein stability index value is on record for GTLDINPDDDYGFKQEI [FAS1]
Solution: 3.04

Exercise: Tell us which protein stability index value is on record for SEMLAKYSDILLKKATK [CDC53]
Solution: 2.47

Exercise: Tell us which protein stability index value is on record for IIGKTTPISPDEEELGQ [RPB2]
Solution: 2.98

Exercise: Tell us which protein stability index value is on record for YASKAVPHYNRLDSYKV [RPL25]
Solution: 1.47

Exercise: Tell us which protein stability index value is on record for SLLLKNYLNDMHDSNLQ [SKP1]
Solution: 2.08

Exercise: Tell us which protein stability index value is on record for TTYTYQQPNPLQDLISV [ROX3]
Solution: 2.08
